The reported measurements were obtained from patent US7132447B2.

target: NADH-fumarate reductase; assay: NADH-fumarate reductase inhibitory activity, Ascaris suum muscle mitochondria fraction, NADH absorption at 340 nm; details: 37° C., pH 7.0, read-out: concentration showing 50% inhibition of NADH-fumarate reductase activity
pIC50: −log10 of the molar value.

[
  {
    "MOLECULE": "CCCCCCCC/C(C)=C/Cc1oc(OC)c(C)c(=O)c1C [FKI-1083 substance]",
    "pIC50": 8.39
  }
]
